Assay: Antioxidant activity assessed as Trolox equivalent per microM of compound after 15 mins by oxygen radical absorbance capacity fluorescein assay
Format: physicochemical
Details: 0.25 h
Catalogue of molecules with associated fold change (Trolox equivalents (ORAC))
Number only, no unit.

# Smiles notation, fold change (Trolox equivalents (ORAC))
records = [
    ("COc1cc2oc(-c3cccc(OCC(=O)NCCCCCCNc4c5c(nc6cc(Cl)ccc46)CCCC5)c3)cc(=O)c2c(OC)c1OC", 0.47),
    ("COc1cc2oc(-c3cccc(OCC(=O)NCCCCCNc4c5c(nc6cc(Cl)ccc46)CCCC5)c3)cc(=O)c2c(OC)c1OC", 0.53),
]

Next molecule, please.
Input line: # get_value(readout='fold change (Trolox equivalents (ORAC))', item= COc1cc2oc(-c3ccc(OCC(=O)NCCCNc4c5c(nc6cc(Cl)ccc46)CCCC5)cc3)cc(=O)c2c(OC)c1OC )
Output line: 0.62

###

# inhibition values compiled below
Target: Amyloid-beta precursor protein (Homo sapiens)
Experiment: Inhibition of self-induced Abeta(1 to 42) (unknown origin) aggregation at 25 uM after 24 hrs by Thioflavin T-based fluorometric assay
I only need the number, in %, no unit after it.

Known inhibition results, listed for orientation:
# Smiles notation, Observable, Unit abbrev, Reading
rows = [
    ("COc1cc2oc(-c3ccc(O)cc3)cc(=O)c2c(OC)c1OC", "inhibition", "%", 11.2),
    ("COc1cc2oc(-c3ccc(OCC(=O)NCCCCCCNc4c5c(nc6cc(Cl)ccc46)CCCC5)cc3)cc(=O)c2c(OC)c1OC", "inhibition", "%", 35.5),
    ("COc1cc2oc(-c3cccc(OCC(=O)NCCCCNc4c5c(nc6cc(Cl)ccc46)CCCC5)c3)cc(=O)c2c(OC)c1OC", "inhibition", "%", 31.8),
    ("COc1cc2oc(-c3cccc(OCC(=O)NCCCCCCNc4c5c(nc6cc(Cl)ccc46)CCCC5)c3)cc(=O)c2c(OC)c1OC", "inhibition", "%", 34.3),
    ("COc1cc2oc(-c3cccc(OCC(=O)NCCCCCNc4c5c(nc6cc(Cl)ccc46)CCCC5)c3)cc(=O)c2c(OC)c1OC", "inhibition", "%", 32.5),
    ("COc1cc2oc(-c3ccc(OCC(=O)NCCCCCNc4c5c(nc6cc(Cl)ccc46)CCCC5)cc3)cc(=O)c2c(OC)c1OC", "inhibition", "%", 33.8),
    ("COc1cc2oc(-c3ccc(OCC(=O)NCCCCNc4c5c(nc6cc(Cl)ccc46)CCCC5)cc3)cc(=O)c2c(OC)c1OC", "inhibition", "%", 30.3),
    ("COc1cc2oc(-c3cccc(OCC(=O)NCCCNc4c5c(nc6cc(Cl)ccc46)CCCC5)c3)cc(=O)c2c(OC)c1OC", "inhibition", "%", 30.6),
]

Input line: Which inhibition value belongs to COc1cc2oc(-c3ccc(OCC(=O)NCCCNc4c5c(nc6cc(Cl)ccc46)CCCC5)cc3)cc(=O)c2c(OC)c1OC ?
Output line: 25.6

Input line: For COc1cc2oc(-c3cccc(O)c3)cc(=O)c2c(OC)c1OC , what is its reported inhibition?
Output line: 17.4

###

Heads up, these molecules all have pIC50 values measured for UniProt:O42275.
Sequence (O42275 whole entry): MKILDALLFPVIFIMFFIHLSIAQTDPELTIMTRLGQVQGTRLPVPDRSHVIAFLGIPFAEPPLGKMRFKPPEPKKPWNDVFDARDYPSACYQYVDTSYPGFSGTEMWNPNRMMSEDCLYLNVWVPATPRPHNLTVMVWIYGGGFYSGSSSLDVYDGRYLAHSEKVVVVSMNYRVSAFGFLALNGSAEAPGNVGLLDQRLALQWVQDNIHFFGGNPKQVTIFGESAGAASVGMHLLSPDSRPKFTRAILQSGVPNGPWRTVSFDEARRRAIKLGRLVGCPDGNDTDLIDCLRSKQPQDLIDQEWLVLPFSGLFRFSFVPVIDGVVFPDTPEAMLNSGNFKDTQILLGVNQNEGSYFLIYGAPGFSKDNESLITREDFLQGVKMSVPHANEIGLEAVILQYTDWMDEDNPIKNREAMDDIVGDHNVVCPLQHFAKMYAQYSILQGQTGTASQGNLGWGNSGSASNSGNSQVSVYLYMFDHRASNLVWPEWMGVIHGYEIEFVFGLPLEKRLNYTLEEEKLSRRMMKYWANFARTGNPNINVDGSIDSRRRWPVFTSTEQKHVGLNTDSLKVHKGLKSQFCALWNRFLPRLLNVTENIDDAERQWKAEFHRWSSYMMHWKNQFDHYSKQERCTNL
Schema: pIC50 number; meaning minus log10 of the concentration expressed in molar units.

These solved cases illustrate the format of a correct answer.
# Smiles notation, pIC50
measured = [
    ("COc1cc2oc(-c3cccc(OCC(=O)NCCCNc4c5c(nc6cc(Cl)ccc46)CCCC5)c3)cc(=O)c2c(OC)c1OC", 7.42),
    ("COc1cc2oc(-c3ccc(OCC(=O)NCCCCCNc4c5c(nc6cc(Cl)ccc46)CCCC5)cc3)cc(=O)c2c(OC)c1OC", 7.89),
    ("COc1cc2oc(-c3cccc(OCC(=O)NCCCCCNc4c5c(nc6cc(Cl)ccc46)CCCC5)c3)cc(=O)c2c(OC)c1OC", 7.68),
]

// switching to the query molecule
Input line: Request body: readout pIC50, system UniProt:O42275, query COc1cc2oc(-c3cccc(OCC(=O)NCCCCNc4c5c(nc6cc(Cl)ccc46)CCCC5)c3)cc(=O)c2c(OC)c1OC . Return the value.
Output line: 7.17
